These measurements were taken from the supplement of paper PMC9732359.

assay: protein stability index of a GFP-peptide fusion (yeast GPS) (PSI 1-4); higher = more stable; sorted into four equal gates, so the index is relative within each strain; settings: doa10∆
endpoint_label: protein stability index
Kindly provide the number alone.

{"record_sequence": "NESKIKELNEKIQKLEE [RPN7]", "protein stability index": 2.95}
{"record_sequence": "SLTISLYASDYASYFPY [RPN7]", "protein stability index": 1.42}
{"record_sequence": "FSQTVADNNDLQESINH [ECM29]", "protein stability index": 3.03}
{"record_sequence": "QNKKNLKWVAVVPDLGH [SSN2]", "protein stability index": 2.67}
{"record_sequence": "ELKEITSLPDWCQEAFP [BRR2]", "protein stability index": 2.86}
{"record_sequence": "LLVDIQKYNQIQKQIET [SMC2]", "protein stability index": 1.92}

Please report the recorded protein stability index for KTRNPLTHSTPKNFGIG [RPL8A] .
3.02

For SSNVQQPQQQLGDMENN [RTT102] then?
3.21

For NGNITYSEEPREKVRKL [FAS2] then?
2.99

###

Overview of reported protein stability index across a group of sequences:
experiment: protein stability index of a GFP-peptide fusion (yeast GPS) (PSI 1-4); higher = more stable; sorted into four equal gates, so the index is relative within each strain; conditions: doa10∆
Kindly provide the number alone.

Below, each entry is followed by its recorded protein stability index result.
{"record_sequence": "ANAVQNNNGNSAASKKK [SRP21]", "protein stability index": 3.06}
{"record_sequence": "LKIIHTSVWAGQKRLSQ [PRP8]", "protein stability index": 1.36}

From here, focus on the item given below.
Please report the recorded protein stability index for FHIGYFKATIQILQGIC [RPO31] .
1.39

###

Overview of reported protein stability index across a group of sequences:
assay: protein stability index of a GFP-peptide fusion (yeast GPS) (PSI 1-4); higher = more stable; sorted into four equal gates, so the index is relative within each strain; details: ubr1∆
Kindly provide the number alone.

{"record_sequence": "ENIPVALCKNRKCQFRT [POP1]", "protein stability index": 1.96}

From here, focus on the item given below.
Please report the recorded protein stability index for SLTISLYASDYASYFPY [RPN7] .
1.67

###

test: protein stability index of a GFP-peptide fusion (yeast GPS) (PSI 1-4); higher = more stable; sorted into four equal gates, so the index is relative within each strain; conditions: san1∆
endpoint_label: protein stability index
Kindly provide the number alone.

{"record_sequence": "TDKSNSPIGFTNSPQIS [SMC2]", "protein stability index": 3.03}

Please report the recorded protein stability index for DVKVSISHDDLQAVAVA [FAS2] .
1.61

For ETLNDTIERSLIEEEVE [YCS4] then?
3.31

For NIIASPLSAGFNYGKLP [SIN4] then?
2.68

For GNYSHLMEKNRIRKLTG [REC8] then?
2.56

For ERSLRQKYNLLHVLPTL [SNM1] then?
2.03

For ELKNELAKTKENYDAKI [YIL149C/MLP2] then?
3.15

For IHEIRLNTLNNVVEIWV [SIR3] then?
1.46

For RLGSEADAKAFLDSMAQ [FAS2] then?
3.21

For LDKNLIKLVKQNDELKF [RPC34] then?
1.43

For REEAIGFIRGSNKFAEV [SMC3] then?
2.95
